biological target: JAK3 (Homo sapiens, UniProt P52333); test: JAK3 inhibition assay (33P incorporation into poly(Glu)4Tyr); type: biochemical; details: Table 6; enzyme inhibition data (Ki)
Sequence (P52333 whole entry): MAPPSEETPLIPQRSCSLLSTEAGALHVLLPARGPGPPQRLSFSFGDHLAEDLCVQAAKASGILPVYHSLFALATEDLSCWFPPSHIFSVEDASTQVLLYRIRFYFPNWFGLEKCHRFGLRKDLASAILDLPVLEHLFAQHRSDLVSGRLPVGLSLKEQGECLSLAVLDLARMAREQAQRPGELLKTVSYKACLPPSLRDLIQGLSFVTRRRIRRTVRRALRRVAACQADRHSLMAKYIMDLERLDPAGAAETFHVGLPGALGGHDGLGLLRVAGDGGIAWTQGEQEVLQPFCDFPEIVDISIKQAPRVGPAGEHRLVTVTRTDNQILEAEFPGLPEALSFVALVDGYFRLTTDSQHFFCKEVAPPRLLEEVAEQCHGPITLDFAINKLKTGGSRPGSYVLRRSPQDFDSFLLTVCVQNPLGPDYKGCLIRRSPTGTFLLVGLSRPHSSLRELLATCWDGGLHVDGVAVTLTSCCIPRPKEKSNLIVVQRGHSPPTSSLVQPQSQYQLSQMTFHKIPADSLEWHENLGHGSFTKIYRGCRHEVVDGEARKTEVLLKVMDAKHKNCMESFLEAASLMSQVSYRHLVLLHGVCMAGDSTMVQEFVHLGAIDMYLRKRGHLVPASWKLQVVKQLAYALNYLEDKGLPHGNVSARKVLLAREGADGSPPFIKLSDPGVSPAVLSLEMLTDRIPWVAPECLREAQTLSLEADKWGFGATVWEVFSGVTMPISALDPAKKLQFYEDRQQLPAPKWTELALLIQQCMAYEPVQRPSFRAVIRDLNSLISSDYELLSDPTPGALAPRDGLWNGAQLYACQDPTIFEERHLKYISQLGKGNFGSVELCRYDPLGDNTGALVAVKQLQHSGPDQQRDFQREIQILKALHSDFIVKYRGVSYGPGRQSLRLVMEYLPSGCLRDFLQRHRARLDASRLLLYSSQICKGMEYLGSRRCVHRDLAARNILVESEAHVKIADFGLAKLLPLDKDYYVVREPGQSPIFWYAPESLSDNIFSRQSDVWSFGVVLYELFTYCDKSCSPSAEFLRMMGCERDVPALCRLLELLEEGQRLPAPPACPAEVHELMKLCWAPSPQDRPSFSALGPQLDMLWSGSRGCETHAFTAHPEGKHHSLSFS
pKi: −log10 of the molar value.
Metric name: pKi

Examples with their reported pKi follow.
O=C(NC1CCCC1)c1cc(-c2ccnc3[nH]ccc23)c[nH]1 = > 6.30
O=C(NC1CC1)c1ccc(-c2ccnc3[nH]ccc23)cc1 = 5.30 to 6.30
CC(C)CN(C)C(=O)c1cc(-c2c(Cl)cnc3[nH]ccc23)c[nH]1 = > 6.30

Specify reported pKi for the compound shown: N#CCCN(CC1CC1)C(=O)c1cc(-c2c(F)cnc3[nH]ccc23)c[nH]1
> 6.30

Specify reported pKi for the compound shown: COc1ccc(F)cc1-c1ccnc2[nH]ccc12
5.30 to 6.30

Specify reported pKi for the compound shown: CC(C)CNC(=O)c1cc(-c2ccnc3[nH]ccc23)c[nH]1
> 6.30

Specify reported pKi for the compound shown: O=C(NCC(F)(F)F)[C@H]1CCCN1c1nc(-c2ccnc3[nH]ccc23)ncc1F
5.30 to 6.30

Specify reported pKi for the compound shown: C#CCN(C)C(=O)c1cc(-c2ccnc3[nH]ccc23)c[nH]1
> 6.30

Specify reported pKi for the compound shown: CC(C)(C)C(=O)Nc1ncccc1-c1ccnc2[nH]ccc12
< 5.30

----------
Attribute: Ki
target: JAK3 (Homo sapiens, UniProt P52333); assay: JAK3 inhibition assay (33P incorporation into poly(Glu)4Tyr); assay type: biochemical; settings: Table 6; enzyme inhibition data (Ki)

CCCNC(=O)c1cccc(-c2ccnc3[nH]ccc23)c1 [compound 256] = 500 to 5000 nM
C#CCN(C)C(=O)c1ccc(-c2ccnc3[nH]ccc23)s1 [compound 323] = < 500 nM
Clc1ccccc1Nc1c(Cl)cnc2[nH]ccc12 [compound 158] = < 500 nM
CCOc1ccc(Cl)cc1-c1ccnc2[nH]ccc12 [compound 237] = > 5000 nM

Attention now turns to another entry.
Fill in Ki for Clc1cnc2[nH]ccc2c1Nc1cccc(-c2cnco2)c1 [compound 156] tested with JAK3 (Homo sapiens, UniProt P52333).
< 500 nM

----------
Attribute: pKi
target: JAK2 (Homo sapiens); test: JAK2 inhibition assay (as Example 3 with JAK-2 enzyme); format: biochemical; settings: Table 6; enzyme inhibition data (Ki)
Sequence (O60674 whole entry): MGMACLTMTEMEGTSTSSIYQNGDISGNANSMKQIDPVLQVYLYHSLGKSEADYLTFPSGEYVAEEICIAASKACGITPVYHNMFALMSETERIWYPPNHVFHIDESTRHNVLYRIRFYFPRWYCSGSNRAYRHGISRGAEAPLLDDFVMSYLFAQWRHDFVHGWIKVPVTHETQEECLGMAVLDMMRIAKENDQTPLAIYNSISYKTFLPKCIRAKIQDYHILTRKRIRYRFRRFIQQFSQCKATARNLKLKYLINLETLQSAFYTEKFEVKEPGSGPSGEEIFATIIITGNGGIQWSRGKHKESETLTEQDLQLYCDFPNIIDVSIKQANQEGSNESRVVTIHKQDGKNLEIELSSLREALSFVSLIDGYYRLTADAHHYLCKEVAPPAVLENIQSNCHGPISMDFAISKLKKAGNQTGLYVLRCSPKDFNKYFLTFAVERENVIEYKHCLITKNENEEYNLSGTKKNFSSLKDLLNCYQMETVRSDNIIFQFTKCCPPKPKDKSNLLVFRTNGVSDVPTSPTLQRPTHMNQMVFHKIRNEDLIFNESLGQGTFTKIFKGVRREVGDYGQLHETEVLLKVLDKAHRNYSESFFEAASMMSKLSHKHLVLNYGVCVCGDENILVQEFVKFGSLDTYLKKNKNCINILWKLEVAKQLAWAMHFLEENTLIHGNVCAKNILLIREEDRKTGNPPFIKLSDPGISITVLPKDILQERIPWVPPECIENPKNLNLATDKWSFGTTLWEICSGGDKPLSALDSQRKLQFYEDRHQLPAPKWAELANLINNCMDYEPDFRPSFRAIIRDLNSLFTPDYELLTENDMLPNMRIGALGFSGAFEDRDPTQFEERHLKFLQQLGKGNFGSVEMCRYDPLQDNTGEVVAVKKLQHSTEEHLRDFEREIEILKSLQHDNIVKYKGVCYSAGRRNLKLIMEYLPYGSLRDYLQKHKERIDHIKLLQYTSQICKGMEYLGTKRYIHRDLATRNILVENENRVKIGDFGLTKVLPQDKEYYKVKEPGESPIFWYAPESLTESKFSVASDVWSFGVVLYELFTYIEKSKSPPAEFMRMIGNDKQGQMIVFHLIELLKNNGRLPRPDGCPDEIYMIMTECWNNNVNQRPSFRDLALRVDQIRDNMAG
pKi: −log10 of the molar value.

Examples with their reported pKi follow.
O=C(c1cc(-c2ccnc3[nH]ccc23)c[nH]1)N1CCC(O)C1 (stereo not drawn) [compound 366] = 5.30 to 6.30
Clc1cnc2[nH]ccc2c1Nc1cccc(-c2cnco2)c1 = > 6.30
N#CCCN(CC1CC1)C(=O)c1csc(-c2ccnc3[nH]ccc23)n1 = > 6.30

Specify reported pKi for the molecule shown: N#CCCN(Cc1ccccc1)C(=O)c1cc(-c2ccnc3[nH]ccc23)c[nH]1
> 6.30

Specify reported pKi for the molecule shown: CCCCN(CCC#N)C(=O)c1cc(-c2c(F)cnc3[nH]ccc23)c[nH]1
> 6.30

Specify reported pKi for the molecule shown: O=C(CNc1nc(-c2ccnc3[nH]ccc23)ncc1F)NCC(F)(F)F
5.30 to 6.30

Specify reported pKi for the molecule shown: COCCN(CCOC)C(=O)c1ccc(-c2ccnc3[nH]ccc23)s1
> 6.30

Specify reported pKi for the molecule shown: Cc1ccc(C(N)=O)cc1Nc1c(Cl)cnc2[nH]ccc12
5.30 to 6.30

Specify reported pKi for the molecule shown: N#CCN(Cc1ccc(F)cc1)C(=O)c1cc(-c2c(F)cnc3[nH]ccc23)c[nH]1
> 6.30
